tested on: edema of the mouse ear; assay: Mouse Ear Inflammation Test (arachidonic acid-induced edema); assay type: in vivo; conditions: oral, 60 minutes before arachidonic acid, swelling at 30 minutes, averaged over several experiments, read-out: Edema formation - ED50
ED50 by entry:
Metric: ED50 (mg/kg)

compound="CC(C)Cc1cc(C(C(=O)O)C2CCCCCC2)ccc1OCc1ccc2ccccc2n1 (single isomer, unassigned; (-))" metric=ED50 numeric_result=12.5
compound="CC(c1cc2ccccc2s1)N(O)C(N)=O (stereo not drawn) [Zileuton, reference compound]" metric=ED50 numeric_result=47.4
compound=O=C(O)[C@@H](c1ccc(OCc2ccc3ccccc3n2)cc1)C1CCCC1 metric=ED50 numeric_result=48.7
compound="O=C(O)C(O)(c1ccc(OCc2ccc3ccccc3n2)cc1)C1Cc2ccccc2C1 (single isomer, unassigned; (-))" metric=ED50 numeric_result=15
compound=CS(=O)(=O)NC(=O)[C@@H](c1ccc(OCc2ccc3ccccc3n2)cc1)C1CCCCCC1 metric=ED50 numeric_result=5.2

Values compiled from patent US5391555A.
